Target: T1, Flk-1-Fc (mouse vascular endothelial growth factor receptor-2 Fc chimera) (mouse, UniProt P35918 20-762)
T1 construct: Bought from R&D Systems; also called mouse VEGFR-2-Fc; Fc part of the bought chimera not given
T1 sequence (P35918 20-762, change not shown): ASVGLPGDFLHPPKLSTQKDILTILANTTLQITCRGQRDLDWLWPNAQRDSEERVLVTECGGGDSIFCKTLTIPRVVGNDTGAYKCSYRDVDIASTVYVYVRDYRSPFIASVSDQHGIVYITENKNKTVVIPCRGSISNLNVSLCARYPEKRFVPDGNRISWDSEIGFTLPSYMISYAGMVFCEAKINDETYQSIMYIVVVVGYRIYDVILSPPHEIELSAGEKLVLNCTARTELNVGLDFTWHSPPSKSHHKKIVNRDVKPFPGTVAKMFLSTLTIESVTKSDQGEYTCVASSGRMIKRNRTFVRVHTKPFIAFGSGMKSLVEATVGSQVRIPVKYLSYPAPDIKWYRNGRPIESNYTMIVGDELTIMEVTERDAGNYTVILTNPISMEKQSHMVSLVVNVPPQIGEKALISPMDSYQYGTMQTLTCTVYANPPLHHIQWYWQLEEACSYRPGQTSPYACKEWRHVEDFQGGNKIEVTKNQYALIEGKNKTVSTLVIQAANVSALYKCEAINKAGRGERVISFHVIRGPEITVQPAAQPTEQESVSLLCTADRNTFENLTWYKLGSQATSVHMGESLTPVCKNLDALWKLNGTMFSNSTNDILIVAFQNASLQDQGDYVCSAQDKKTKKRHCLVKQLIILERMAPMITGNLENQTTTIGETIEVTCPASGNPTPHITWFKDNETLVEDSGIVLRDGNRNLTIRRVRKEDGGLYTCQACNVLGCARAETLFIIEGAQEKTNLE
Assay: radioactive equilibrium binding assay, % bound at 1 nM Flk-1-Fc
Procedure: To prepare ³⁵S-labeled binding proteins for analysis, mRNA was prepared as described above for RNA-protein fusion production but the linker ligation step was omitted. […] 50 μL of the reaction mixture and elution were dried onto a LumaPlate-96 (Packard) and the amount of ³⁵S on the plate was measured using a TopCount NXT instrument (Packard). […] Data was analyzed using the GraphPad Prizm software (GraphPad Software, Inc, San Diego, Calif.), fitted using a one site, non-linear binding equation.
experimental.readout: Binding to 1 nM Flk-1, % (%)

{"columns": ["binder", "val"],
 "data": [
  ["F12 (designed binder, 10Fn3 clone, Del 1-8) EVVAATPTSLLISWRHPHFPTRYYRITYGETGGNSPVQEFTVPLQPPTATISGLKPGVDYTITGYAVTDGRNGHELMTPISINYRT", 1],
  ["B12 (designed binder, 10Fn3 clone, Del 1-8) EVVAATPTSLLISWRHPHFPTRYYRITYGETGGNSPVQEFTVPLQPPTATISGLKPGVDYTITGYAVTVERNGRELRTPISINYRT", 21],
  ["B11 (designed binder, 10Fn3 clone, Del 1-8) EVVAATPTSLLISWRHPHFPTRYYRITYGETGGNSPVQEFTVPLQPPTATISGLKPGVDYTITGYAVTVERNGRELKTPISINYRT", 21],
  ["G1 (designed binder, 10Fn3 clone, Del 1-8) EVVAATPTSLLISWRHPHFPTRYYRITYGETGGNSPVQEFTVPLQPPTATISGLKPGVDYTITGYAVTEGRNGRELMVPISINYRT", 2]
]}
